Catalogue of molecules with associated IC50
molecular target: LSD1 (Homo sapiens)

molecule	IC50
COc1ccc(-n2nc(C(=O)N3CCC[C@H](N)C3)cc2-c2ccc(C#N)c(F)c2)cc1 [Example 19]	< 500 nM

Query: Hello, I am looking for reported IC50 with LSD1 (Homo sapiens) for COC1CCN(c2ccc(-n3nc(-c4ccc(C#N)c(F)c4)cc3C(=O)N3CCC[C@@H](N)C3)cc2)CC1 [Example 57, 2,2,2-trifluoroacetate] . Could you help?
Reply: < 500 nM

Query: Hello, I am looking for reported IC50 with LSD1 (Homo sapiens) for COc1ccc(-n2nc(NC(=O)C3CCNCC3)cc2-c2ccc(C#N)c(F)c2)cc1 [Example 92, 2,2,2-trifluoroacetate] . Could you help?
Reply: 500 to 1000 nM

Query: Hello, I am looking for reported IC50 with LSD1 (Homo sapiens) for N#Cc1ccc(-c2cc(C(=O)N3CCC[C@@H](N)C3)nn2-c2ccc(N3CCS(=O)(=O)CC3)cc2)cc1F [Example 71, 2,2,2-trifluoroacetate] . Could you help?
Reply: < 500 nM

====

target: LSD1 (Homo sapiens, UniProt O60341)
assay-endpoint: IC50

Query: So what does the record say about IC50 for N#Cc1ccc(-c2cc(C(=O)N3CCC[C@@H](N)C3)nn2-c2ccc(N3CCC(OCCCO)CC3)cc2)cc1F [Example 69, 2,2,2-trifluoroacetate] ?
Reply: < 500 nM

Query: So what does the record say about IC50 for COc1ccc(-n2nc(C(=O)N[C@@H]3CCC[C@H](N)C3)cc2-c2ccc(C#N)c(F)c2)cc1 [Example 28, 2,2,2-trifluoroacetate] ?
Reply: 500 to 1000 nM

Query: So what does the record say about IC50 for Cc1cc(CCn2nc(C(=O)N3CCC[C@H](N)C3)cc2-c2ccc(C#N)c(F)c2)on1 ?
Reply: > 10000 nM

Query: So what does the record say about IC50 for Cc1ccc(-n2nc(-c3ccc(C#N)c(F)c3)cc2C(=O)N2CCCC(N)C2)cc1 (stereo not shown) ?
Reply: < 500 nM

Query: So what does the record say about IC50 for COc1ccc(-n2nc(C(=O)N[C@H]3CCNC3)cc2-c2ccc(C#N)c(F)c2)cc1 [Example 26, 2,2,2-trifluoroacetate] ?
Reply: 500 to 1000 nM

Query: So what does the record say about IC50 for Cc1ccc(-n2nc(C(=O)NC3CCNC3)cc2-c2ccc(C#N)c(F)c2)cc1 (stereo not shown) ?
Reply: 500 to 1000 nM

Query: So what does the record say about IC50 for COc1ccc(-n2nc(NC(=O)[C@H]3CCC[C@H](N)C3)cc2-c2ccc(C#N)c(F)c2)cc1 [Example 90, 2,2,2-trifluoroacetate] ?
Reply: < 500 nM

====

test system: MV4;11 cells; test: Cell Titer-Glo Luminescent Cell Viability Assay, cell growth inhibition against MV4;11 cells; assay type: cell-based; details: MV4;11 cells, Day 10 (re-seeded at Day 5 with fresh compound), 10-point dose curve 0 to 50 μM; read-out: Cell Titer Glo IC50 (10 d)
pIC50: −log10 of the molar value.
assay-endpoint: pIC50

Query: So what does the record say about pIC50 for COC1CCN(c2ccc(-n3nc(C(=O)N4CCCC(N)C4)cc3-c3ccc(C#N)c(F)c3)cc2)CC1 (stereo in doubt) [Example 64, 2,2,2-trifluoroacetate] ?
Reply: > 6.30

====

molecular target: LSD1 (Homo sapiens)
Catalogue of compounds with associated IC50

Some solved entries appear below for comparison.
compound	assay-endpoint	observed-value
N#Cc1ccc(-c2cc(C(=O)N3CCC[C@@H](N)C3)nn2-c2ccc(-c3ccc4c(c3)OCCO4)cc2)cc1F [Example 85, 2,2,2-trifluoroacetate]	IC50	< 0.5 µM
COc1ccc(-n2nc(C(=O)N[C@@H]3CCNC3)cc2-c2ccc(C#N)c(F)c2)cc1 [Example 27, 2,2,2-trifluoroacetate]	IC50	1 to 10 µM

Query: Hello, I am looking for reported IC50 with LSD1 (Homo sapiens) for COc1ccc(-n2nc(C(=O)N[C@H]3CCC[C@H](N)C3)cc2-c2ccc(C#N)c(F)c2)cc1 [Example 25, 2,2,2-trifluoroacetate] . Could you help?
Reply: 1 to 10 µM

Query: Hello, I am looking for reported IC50 with LSD1 (Homo sapiens) for COc1ccc(-n2nc(C(=O)NC3CCCC(N)C3)cc2-c2ccc(C#N)c(F)c2)cc1 (stereo not drawn) [Example 20, 2,2,2-trifluoroacetate] . Could you help?
Reply: 1 to 10 µM

Query: Hello, I am looking for reported IC50 with LSD1 (Homo sapiens) for COc1ccc(-n2nc(NC(=O)[C@H]3CCNC3)cc2-c2ccc(C#N)c(F)c2)cc1 [Example 95, 2,2,2-trifluoroacetate] . Could you help?
Reply: < 0.5 µM

Query: Hello, I am looking for reported IC50 with LSD1 (Homo sapiens) for COc1ccc(-n2nc(C(=O)N3CC(N)C3)cc2-c2ccc(C#N)c(F)c2)cc1 [Example 31, 2,2,2-trifluoroacetate] . Could you help?
Reply: > 10 µM

====

target: LSD1 (Homo sapiens)
Catalogue of compounds with associated IC50

compound	assay-endpoint	observed-value
Cn1cc2cc(-n3nc(C(=O)N4CCC[C@H](N)C4)cc3-c3ccc(C#N)c(F)c3)ccc2n1 [Example 44, 2,2,2-trifluoroacetate]	IC50	< 500 nM

Query: So what does the record say about IC50 for COc1ccc(-n2nc(C(=O)N3CCCC(NC(=N)N)C3)cc2-c2ccc(C#N)c(F)c2)cc1 (stereo not drawn) [Example 29, 2,2,2-trifluoroacetate] ?
Reply: 1000 to 10000 nM

Query: So what does the record say about IC50 for CN1CCN(c2ccc(-n3nc(C(=O)N4CCC[C@@H](N)C4)cc3-c3ccc(C#N)c(F)c3)c(F)c2)CC1=O [Example 68] ?
Reply: < 500 nM

Query: So what does the record say about IC50 for COc1ccc(-n2nc(C(=O)N3CC(CN)C3)cc2-c2ccc(C#N)c(F)c2)cc1 [Example 32, 2,2,2-trifluoroacetate] ?
Reply: 1000 to 10000 nM

Query: So what does the record say about IC50 for COc1ccc(-n2nc(C(=O)N[C@@H]3CCC[C@@H](N)C3)cc2-c2ccc(C#N)c(F)c2)cc1 [Example 23, 2,2,2-trifluoroacetate] ?
Reply: 1000 to 10000 nM

Query: So what does the record say about IC50 for COC1CCN(c2ccc(-n3nc(C(=O)N4CCCC(N)C4)cc3-c3ccc(C#N)c(F)c3)cc2)CC1 (stereo in doubt) [Example 64, 2,2,2-trifluoroacetate] ?
Reply: < 500 nM

Query: So what does the record say about IC50 for N#Cc1ccc(-c2cc(C(=O)N3CCC[C@@H](N)C3)nn2-c2ccc(N3CCCC3)cc2)cc1F [Example 62, 2,2,2-trifluoroacetate] ?
Reply: < 500 nM

====

A short record of IC50 observed with LSD1 (Homo sapiens, UniProt O60341) follows.

compound	IC50
COc1ccc(-n2nc(C(=O)N3CCCC(N)C3)cc2-c2ccc(C#N)cc2)cc1 (stereo not shown)	< 500 nM
Cn1cc2cc(-n3nc(C(=O)N4CCCC(N)C4)cc3-c3ccc(C#N)c(F)c3)ccc2n1 (stereo not shown)	< 500 nM
COP(=O)(OC)OCCCOC1CCN(c2ccc(-n3nc(C(=O)N4CCC[C@@H](N)C4)cc3-c3ccc(C#N)c(F)c3)cc2)CC1 [Example 70, phosphate 2,2,2-trifluoroacetate]	< 500 nM
N#Cc1ccc(-c2cc(C(=O)N3CCC[C@@H](N)C3)nn2-c2ccc(-c3cnc4c(c3)OCCO4)cc2)cc1F [Example 84, 2,2,2-trifluoroacetate]	< 500 nM
CN1CCN(c2ccc(-n3nc(-c4ccc(C#N)c(F)c4)cc3C(=O)N3CCC[C@@H](N)C3)cc2F)CC1 [Example 80, 2,2,2-trifluoroacetate]	< 500 nM
COc1ccc(-n2nc(C(=O)N3CCC(NC(=N)N)CC3)cc2-c2ccc(C#N)c(F)c2)cc1 [Example 30, 2,2,2-trifluoroacetate]	1000 to 10000 nM

As a next step, examine the compound that follows.
Query: Hello, I am looking for reported IC50 with LSD1 (Homo sapiens, UniProt O60341) for COc1ccc(-n2nc(C(=O)NC3CCNCC3)cc2-c2ccc(C#N)c(F)c2)cc1 . Could you help?
Reply: 1000 to 10000 nM

====

target: LSD1 (Homo sapiens, UniProt O60341)
pIC50: −log10 of the molar value.
Catalogue of molecules with associated pIC50

Some solved entries appear below for comparison.
molecule	pIC50
Cc1ccc(-n2nc(C(=O)N3CCCC(CN)C3)cc2-c2ccc(C#N)c(F)c2)cc1 (centres unmarked)	> 6.30
COc1ccc(-n2nc(NC(=O)C3CCNC3)cc2-c2ccc(C#N)c(F)c2)cc1 (centres unmarked) [Example 93, 2,2,2-trifluoroacetate]	> 6.30
CN1CCN(c2ccc(-n3nc(-c4ccc(C#N)c(F)c4)cc3C(=O)N3CCC[C@@H](N)C3)cc2)CC1 [Example 58, 2,2,2-trifluoroacetate]	> 6.30
COc1ccc(-n2nc(C(=O)NC3CCCNC3)cc2-c2ccc(C#N)cc2)cc1 (centres unmarked) [Example 3, 2,2,2-trifluoroacetate]	5.00 to 6.00

As a next step, examine the molecule that follows.
Query: Hello, I am looking for reported pIC50 with LSD1 (Homo sapiens, UniProt O60341) for N#Cc1ccc(-c2cc(C(=O)N3CCC[C@H](N)C3)nn2-c2ccc(N3CCCC3)cc2)cc1F [Example 61, 2,2,2-trifluoroacetate] . Could you help?
Reply: > 6.30
